Exercise: for every item that follows, state its recorded Tmax.
procedure text: Tmax in C57BL/6 mouse at 10 mg/kg, ip measured up to 24 hrs by LC-MS/MS analysis
Format: ADME, organism-based
cond: in vivo
Give bare numbers, in min.

chemical_string=NCCCOc1cc2ccccc2cc1C(=O)NCCOc1cc2ccccc2cc1C(=O)Nc1ccc(Cl)cc1OP(=O)(O)O.O=C(O)C(F)(F)F endpoint_value=60

// Tmax value for `Cl.NCCCOc1cc2ccccc2cc1C(=O)NCCOc1cc2ccccc2cc1C(=O)Nc1ccc(Cl)cc1O` : 15

* * *

procedure text: Apparent permeability of the compound across apical to basolateral side in human Caco-2 cells
Type: ADME, cell-based
quantity kind: Papp A→B

Given item `Cl.NCCCOc1cc2ccccc2cc1C(=O)NCCOc1cc2ccccc2cc1C(=O)Nc1ccc(Cl)cc1O` , the value recorded as its Papp A→B is < 0.11 ×10⁻⁶ cm/s
